For each entry below, report its viability value.
# assayExplanation: growth suppression of beta-catenin knockout HCT116, pilot screen, human colon tumor cells (AID 823);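 also: 0% = wells killed by 20 µM Hyamine and 100% = untreated DMSO cell wells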
# assayContext: CellTiter-Glo, 60 h, at 10 µM, active compounds read low
Records with an inconclusive call do not appear. Calls of active or inactive are those of the source.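 The calls were made as follows: active = cell viability at or below a set limit in both duplicate runs, the limit being the all-compound median minus 4 SD (cut at about 23% in these data, passing the limit was not always enough); inconclusive = no clear call, values can overlap the other calls; inactive = the rest.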

For reference, reported viability for COc1cccc(C2N(c3ccc(Cl)cc3)C(=O)C3CCCN32)c1 (stereo unspecified) stands at 97.5% (inactive)

For reference, reported viability for CSC1=NCCN1C(=O)COc1ccc2ccccc2c1 stands at 98.9% (inactive)

For reference, reported viability for CCn1c2c(c3cc(Cl)ccc31)CCCC2=O stands at 96% (inactive)

For reference, reported viability for CC(=O)Oc1cccc(N2C(=O)C3C(C2=O)C2C=CC3C23CC3)c1 (stereo unspecified) stands at 96.9% (inactive)

For reference, reported viability for COc1cccc(C2CC(c3ccccc3OC)n3ncnc3N2)c1 (stereo unspecified) stands at 90.1% (inactive)

For reference, reported viability for c1ccc(-c2nnn(C34CC5CC(CC(C5)C3)C4)n2)cc1 stands at 90.8% (inactive)

###

# assayExplanation: growth suppression of PTEN-deleted HCT116, pilot screen, cell-based, HCT116 clonal line, CellTiter-Glo (AID 824);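 also: 0% = 20 µM Hyamine control and 100% = vehicle cell control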
# assayContext: 60 h, at 10 µM, active compounds read low
Results filed as inconclusive are left out.
Lab note: cut-off is 90%. Strictly less in viability is 1.0. Exactly 90% or more is 0.0.

Query block: Is viability strictly under 90% for the entry O=C(NCCn1cc(SCC(=O)N2CCOCC2)c2ccccc21)c1ccccc1 ?
Result block: 0.0

Query block: Is viability strictly under 90% for the entry COc1ccc(Br)cc1S(=O)(=O)N(CC(=O)N1CCOCC1)c1ccccc1 ?
Result block: 0.0

Query block: Is viability strictly under 90% for the entry CCC(CO)N=CC1=C(O)CC(C)(C)CC1=O (stereo not drawn) ?
Result block: 0.0

Query block: Is viability strictly under 90% for the entry CCc1ccccc1NC(=O)c1cc2sccc2n1C ?
Result block: 1.0

Query block: Is viability strictly under 90% for the entry O=C(Nc1ccc2oc(-c3ccccc3)nc2c1)c1ccncc1 ?
Result block: 1.0

Query block: Is viability strictly under 90% for the entry Cc1nc2ccccc2c(=O)n1NC(=O)c1c(O)c2ccccc2n(C)c1=O ?
Result block: 0.0

Query block: Is viability strictly under 90% for the entry CCOc1ccc(OCC)c(NC(=O)CN2CCC(NC(=O)c3cccc(F)c3)CC2)c1 ?
Result block: 1.0

Query block: Is viability strictly under 90% for the entry CCSc1nnc(Cc2cc(=O)[nH]c(=O)[nH]2)n1-c1ccc(Cl)cc1 ?
Result block: 0.0

Query block: Is viability strictly under 90% for the entry Cn1c(CSc2nc3ccccc3s2)n[nH]c1=S ?
Result block: 0.0

Query block: Is viability strictly under 90% for the entry CCOC(=O)c1cc2c(=O)n3ccccc3nc2n(C(C)C)c1=NC(=O)c1ccncc1 ?
Result block: 0.0

###

For each entry below, report its viability increase value.
# assayExplanation: viability gain of MRP-1-high H69AR cells under doxorubicin, pilot screen, MRP-1 activator project, CellTiter-Glo, duplicate (AID 807);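 also: compound pretreatment 18-22 h then 72 h combined with doxorubicin; 0% = doxorubicin alone and 100% = vehicle without doxorubicin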
# assayContext: H69AR viability with doxorubicin, CellTiter-Glo luminescence; at 10 µM; active compounds read high
# unit: % | format: bare number

For reference, reported viability increase for O=C(Nc1ccc(-c2nc3cccnc3s2)cc1)c1ccc(Br)o1 stands at 3.03

For reference, reported viability increase for Cc1ccc(C)c(SCC(=O)OCC(=O)Nc2ccc(S(=O)(=O)N3CCOCC3)cc2)c1 stands at -1.73

For reference, reported viability increase for CCc1c(C)sc(NC(=O)c2cc(C)no2)c1C#N stands at -0.5

For reference, reported viability increase for CCn1cc(C2N3CC4(C)CN2CC(C)(C3)C4=O)c2ccccc21 (centres undefined) stands at -0.78

For reference, reported viability increase for COc1ccc(NC(=O)C2CCN(S(=O)(=O)c3cccc4cccnc34)CC2)cc1 stands at 1.75

For reference, reported viability increase for Cn1c(Cn2c(=O)sc3ccccc32)nnc1SCC(=O)NCc1ccco1 stands at -4.73

For reference, reported viability increase for O=C(CCS(=O)CCC(=O)NCc1ccccc1)NCc1ccccc1 stands at -0.32

For reference, reported viability increase for Fc1cccc(Cl)c1CSc1nnnn1-c1ccc2c(c1)OCO2 stands at -5.87

For reference, reported viability increase for CCOc1ccc(C2N(c3ccc(Cl)cc3)C(=O)C3CCCN32)cc1OC (centres undefined) stands at -1.98

For reference, reported viability increase for COc1ccc(CNC(=O)c2cnn3c(C(F)F)cc(C)nc23)cc1OC stands at 0.02

For reference, reported viability increase for CCOC(=O)C1CCN(C(=O)CN(c2cccc(OC)c2)S(=O)(=O)c2ccccc2)CC1 stands at -3.2

For reference, reported viability increase for CC(=O)Nc1nc(CC(=O)c2ccccc2)cs1 stands at -0.56

For reference, reported viability increase for CCC(C)NC(=O)Cn1cc2c(n1)CCC(C)C2 (centres undefined) stands at -1.54

For reference, reported viability increase for COc1ccc(C(=O)Nc2cccc(C(C)=O)c2)cc1S(=O)(=O)N1CCOCC1 stands at -1.76

For reference, reported viability increase for COC(=O)c1cccc(NC(=O)C(C)N2C(=O)c3ccccc3C2=O)c1 (centres undefined) stands at -1.25

For reference, reported viability increase for Cn1c(=O)c2c(nc(CN3CCOCC3)n2CCc2ccccc2)n(C)c1=O stands at 3.73

For reference, reported viability increase for CCc1ccccc1S(=O)(=O)Cc1ccc(C(=O)NC(C)C)o1 stands at -1.52

For reference, reported viability increase for CCCc1cc(C(=O)NCC(C)C)no1 stands at 0.64

For reference, reported viability increase for c1ccc(OCc2nn3c(-c4ccccn4)nnc3s2)cc1 stands at 0.02

###

# assayExplanation: inhibitors of the yeast RAM network, pilot screen, dse1pr::URA3 reporter, 5-FOA selection (AID 869);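 also: 0% = DMSO wells with no growth and 100% = 10 µM 1-NA-PP1 with full growth; RAM network block rescues cells from 5-FOA so hits raise OD615 growth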
# assayContext: S. cerevisiae dse1pr::URA3 5-FOA growth, OD615, 2 d; at 10 µM; active compounds read high; strain carries analog-sensitive mutant Cbk1 kinase
experimentalReadout: inhibition (%)
# unit: % | format: bare number

For reference, reported inhibition for O=C(Nc1ccc2c(c1)OCO2)c1ccncc1 stands at 0.205

For reference, reported inhibition for COc1ccc2nc(NC(=O)c3ccc4ncsc4c3)sc2c1 stands at 3.54

For reference, reported inhibition for O=C(Nc1ccc(Oc2ccccc2)cc1)c1cnc2n(c1=O)CCS2 stands at 3.62

For reference, reported inhibition for COc1ccccc1Nc1cc(C(=O)NCCCN2CCOCC2)c2ccccc2n1 stands at 0.455

For reference, reported inhibition for Nc1c(S(=O)(=O)c2ccccc2)c2nc3ccccc3nc2n1/N=C/c1ccco1 stands at 2.34

For reference, reported inhibition for Cn1c(=O)oc2cc(S(=O)(=O)N3CCC(C(=O)N4CCN(c5ccccc5)CC4)CC3)ccc21 stands at -0.21

For reference, reported inhibition for Cc1cc(C)nc(-n2nc(C)cc2NC(=O)CN2CCC(C)CC2)n1 stands at 1.01

For reference, reported inhibition for CC(C)N1C(=O)CCC1C(=O)NCc1ccccc1Cl (stereo unspecified) stands at 1.68

For reference, reported inhibition for CSC1=NCCN1C(=O)Cc1ccc(Cl)cc1 stands at 0.105

For reference, reported inhibition for CCOc1cccc(C(=O)Nc2cccc(-c3nnc(-c4ccccc4)o3)c2)c1 stands at 0.02

For reference, reported inhibition for COC(=O)c1ccccc1NC(=O)CS(=O)(=O)Cc1nc(-c2ccc(C)cc2)oc1C stands at 4.7

For reference, reported inhibition for Cc1cc(Nc2ccc(F)cc2F)n2ncnc2n1 stands at 1.35

For reference, reported inhibition for CCn1cc(C(=O)NCCCN2CC(C)CC(C)C2)c(=O)c2cc(S(=O)(=O)N(C)C)ccc21 (stereo unspecified) stands at 0.88

For reference, reported inhibition for COc1ccc(NC(=O)c2cnc3ccccn3c2=O)cc1OC stands at 0.665

For reference, reported inhibition for CCc1ccc2[nH]cc(C(=O)OCCOC)c(=O)c2c1 stands at 1.91

For reference, reported inhibition for Brc1ccc(-c2nnc3sc(CNCc4ccc5c(c4)OCO5)cn23)cc1 stands at 1.17

###

For each entry below, report its growth inhibition value.
# assayExplanation: OD615 S. cerevisiae growth inhibition, permissive medium, pilot counter-assay, permissive growth control for S. cerevisiae lifespan shortening project (AID 705)
# assayContext: OD615, 24 h, at 10 µM, active compounds read high
# unit: % | format: bare number

For reference, reported growth inhibition for COc1ccccc1NC(=O)C1=C(C)NC(=O)NC1c1ccc(C)cc1 (stereo unspecified) stands at -6.15

For reference, reported growth inhibition for COCCn1c(SCC(=O)Nc2ccccc2)nc2c1c(=O)[nH]c(=O)n2C stands at 1.17

For reference, reported growth inhibition for Cn1nc(-c2ccc(Cl)cc2)c2cc(C(=O)NCC3CCCO3)sc21 (stereo unspecified) stands at 1.54

For reference, reported growth inhibition for CCn1cc(C2N3CC4(C)CN2CC(C)(C3)C4=O)c2ccccc21 (stereo unspecified) stands at -13.9

For reference, reported growth inhibition for N#Cc1cnn(CC2CCCCC2)c1N stands at -15.6

For reference, reported growth inhibition for CC1(C)CC(=O)C2=C(C1)Nc1ccccc1NC2c1cccnc1 (stereo unspecified) stands at 7.14

For reference, reported growth inhibition for Cn1c(C(=O)NCCN2CCN(Cc3ccccc3)CC2)cc2c(=O)n(C)c3ccccc3c21 stands at -0.4

For reference, reported growth inhibition for c1ccc(-n2ncc3c(NCc4cccnc4)ncnc32)cc1 stands at -9.01

For reference, reported growth inhibition for COc1ccc(CCNC(=O)CCNS(=O)(=O)c2cccc3nsnc23)cc1OC stands at -2.13

For reference, reported growth inhibition for Cn1c(NC(=O)c2ccc3c(c2)OCO3)cc(=O)n(C)c1=O stands at -5.14

For reference, reported growth inhibition for COC(=O)c1ccc(OC(=O)c2nn(C)cc2Cl)c(OC)c1 stands at -0.14

For reference, reported growth inhibition for CC(=O)c1cccc(NC(=O)N2CCCC2C(=O)NCc2ccccc2)c1 (stereo unspecified) stands at -6.55

For reference, reported growth inhibition for CC(C)COC(=O)c1ccc(NC(=O)C2C3CCC(C3)C2C(=O)O)cc1 (stereo unspecified) stands at -7.04

For reference, reported growth inhibition for Clc1ccc(CSc2nnc(-c3ccccn3)n2Cc2ccco2)c(Cl)c1 stands at -2.3

For reference, reported growth inhibition for COC1=CC(=O)OC12CCCCC2 stands at 3.99

For reference, reported growth inhibition for COc1ccc(-c2nc(CNS(=O)(=O)c3cc(OC)ccc3OC)cs2)cc1 stands at 2.43

For reference, reported growth inhibition for COc1cccc(C2CC(c3ccccc3OC)n3ncnc3N2)c1 (stereo unspecified) stands at -4.81

For reference, reported growth inhibition for CCOC(=O)N1CCN(C(=O)c2ccccc2NC(=O)COc2ccccc2C)CC1 stands at -9.27

For reference, reported growth inhibition for O=C(Nc1nnc(-c2ccccc2)o1)c1nc2ccccc2s1 stands at -9.03

For reference, reported growth inhibition for Cc1cccc(NCc2nc(-c3ccccc3)no2)c1 stands at -2.16

For reference, reported growth inhibition for O=C(CN1CCOc2ccccc21)N1CCCC1 stands at -21.1
